These measurements were taken from the supplement of paper PMC13380429.

# Test system: Caco-2
# EXPERIMENT: cell viability relative to DMSO; higher = less toxic
# CONDITION_NOTES: 72 h; 10000 nM
Some molecules, each annotated with its measured cell viability.
Number only, in %; omit the unit.

# example entries with known answers
- Cc1c(F)cccc1NC(=O)Nc1ccc(Cl)c(S(=O)(=O)[C@H]2CCCNC2)c1O: 95.9
- COc1cc(Nc2ncc3c(n2)-c2ccc(Cl)cc2C(c2c(F)cccc2OC)=NC3)ccc1C(=O)O: 72.8
- O=[N+]([O-])/N=C1\NCCN1Cc1ccc(Cl)nc1: 104
- Cc1c(Cl)cccc1S(=O)(=O)Nc1nc(CC(=O)N2CCN(C)CC2)cs1: 98.3
- CC(C)C[C@@H](N)C1(c2ccc(Cl)cc2)CCC1: 90.3
- CO[C@H]1[C@H](O)[C@@H](O)[C@@H](O)[C@H](O)[C@@H]1O: 97
- CN(C)C1CCN(C(=O)c2ccc(NC(=O)Nc3ccc(-c4nc(N5CCOCC5)nc(N5CCOCC5)n4)cc3)cc2)CC1: 66.7
- Cc1ccccc1N(C)C(=O)c1ccc([S+]([O-])c2nccs2)c([N+](=O)[O-])c1 (stereo unspecified): 0.2
- CCn1cc(-c2cccc(C(F)(F)F)c2)c2sc(C(=N)NC3CCS(=O)(=O)CC3)cc2c1=O: 93.5
- NS(=O)(=O)c1cc2c(cc1Cl)N=CNS2(=O)=O [chlorothiazide]: 86.6

Fill in: cell viability of `O=c1[nH]c2cc(C(F)(F)F)c(N3CCOCC3)cc2n(CP(=O)(O)O)c1=O` is ___
93.9

Could you share which cell viability value was measured for O=C(O)CC1CC(c2ccccc2)=NO1 (stereo unspecified) ?
104

====

# Tested on: U2OS
# EXPERIMENT: cell viability relative to DMSO; higher = less toxic
# CONDITION_NOTES: 72 h; 1000 nM
MEASURED_QUANTITY: cell viability (%)
Give the quantity in %, number only.

Some compounds with known cell viability results, for comparison:
* COc1cc(OC)c(/C=C/S(=O)(=O)Cc2ccc(OC)c(OP(=O)(O)O)c2)c(OC)c1 | 23.7
* CN(C)CCCCSC(=N)N | 94.7
* C=C[C@]1(C)C[C@@H](OC(=O)CSC(C)(C)CNC(=O)[C@H](N)C(C)C)[C@]2(C)[C@H](C)CC[C@]3(CCC(=O)[C@H]32)[C@@H](C)[C@@H]1O | 96.3
* CO[C@H]1[C@H](O)[C@@H](O)[C@@H](O)[C@H](O)[C@@H]1O | 99.8
* c1cn2cc(-c3ccc4cn[nH]c4c3)nc(Nc3ccc(N4CCOCC4)cc3)c2n1 | 98

Which cell viability is reported with U2OS for this entry: `CCc1ccc(/C=C2/SC(=S)NC2=O)cc1` ?
94.9

So what cell viability did NP(N)(=O)NC(=O)c1ccc(F)cc1 [flurofamide] get with U2OS?
99.4

====

# System: Caco-2
# EXPERIMENT: cell viability relative to DMSO; higher = less toxic
# CONDITION_NOTES: 72 h; 10 nM
cell viability reference
Write the answer as a number in %, unit excluded.

Use the examples below as a reference point.
• CN(C)CCC=C1c2ccccc2CCc2ccccc21 = 77.9
• CN(C)C1CCN(C(=O)c2ccc(NC(=O)Nc3ccc(-c4nc(N5CCOCC5)nc(N5CCOCC5)n4)cc3)cc2)CC1 = 93.7
• COc1cc2c(=O)c(-c3ccc(O)cc3)coc2cc1O = 97.3
• CC(=O)c1cc([N+](=O)[O-])c(Sc2ccc(F)cc2F)s1 = 96.6
• CSc1nc2ccc3nc(NC(=O)C(c4ccccc4)c4ccccc4)sc3c2s1 = 100

So what cell viability did `O=C(O)c1ccc2c(c1)nc(Nc1cccc(Cl)c1)c1ccncc12` get with Caco-2?
95.2

Any idea what cell viability came out for `Cc1cc(C)n(-c2cccc([C@H](CC(=O)O)CN3CC[C@@H](CCc4ccc5c(n4)NCCC5)C3)c2)n1` on Caco-2?
102

Item `O=C(Nc1cnn2ccc(N3CCC[C@@H]3c3cc(F)ccc3F)nc12)N1CC[C@H](O)C1` with Caco-2 - cell viability?
92.8

// map `Cc1ccc(Nc2ncc3c(n2)N(C)C(=O)N(c2cc(NC(=O)c4cccc(C(F)(F)F)c4)ccc2C)C3)cn1` to recorded cell viability (system: Caco-2)
92.1

Could you share what cell viability was measured for `OCCOc1ccc(/C(=C(/CCCl)c2ccccc2)c2ccccc2)cc1` , tested on Caco-2?
108

Reported cell viability for Caco-2, given `CCCCOc1cc(C(=O)NCCN(CC)CC)c2ccccc2n1` ?
95

For the record Oc1ccc(CC2NCCc3cc(O)c(O)cc32)cc1 (configuration not stated) , what value of cell viability is listed for Caco-2?
102

====

# Test system: Vero E6
# EXPERIMENT: drug sensitivity score (DSS) for viability; higher = more toxic; extreme values may be limits of the assay
# CONDITION_NOTES: 72 h
MEASURED_QUANTITY: drug sensitivity score
Write no unit; give the number alone.

Study these solved cases before continuing.
* COC(=O)Nc1nc2cc(C(=O)c3ccccc3)ccc2[nH]1 [mebendazole] | 5.9
* COc1cc(OC)nc(O[C@H](C(=O)O)C(OC)(c2ccccc2)c2ccccc2)n1 [darusentan] | 0
* O=C(Nc1c[nH]nc1-c1nc2ccc(CN3CCOCC3)cc2[nH]1)NC1CC1 [AT-9283] | 3.1

Here is the next item to consider.
Need drug sensitivity score, item CCn1c(=O)[nH]c2ccccc21 [1-EBIO]
0

====

Recorded measurements of relative viability EC50, one per entry
# Tested on: U2OS
# EXPERIMENT: relative viability EC50 (midpoint between 100% and the lowest measured viability); higher = less toxic
# CONDITION_NOTES: 72 h

* CC1(C)S[C@@H]2[C@H](N3C(=O)[C@@H](c4ccccc4)NC3(C)C)C(=O)N2[C@H]1C(=O)O [hetacillin] | > 10 µM

What does the data say about its relative viability EC50? Entry: CC(NC(C)(C)C)C(=O)c1cccc(Cl)c1 (stereo not drawn) [bupropion]
> 10 µM

Entry O=C1c2ccc(Nc3ccc(F)cc3F)cc2CCc2ccc(OC[C@H](O)CO)cc21 [skepinone-L] has what relative viability EC50?
> 10 µM

====

# System: Vero E6
# EXPERIMENT: cell viability relative to DMSO; higher = less toxic
# CONDITION_NOTES: 72 h; 1000 nM
MEASURED_QUANTITY: cell viability (%)
Numbers only; they are read as %.

- CCCC(O)C(CC)CO (stereo not given): 104

If you can, please state the reported cell viability value of `C[C@@H]1CC[C@H]2[C@@H](C)C(=O)O[C@@H]3O[C@@]4(C)CC[C@@H]1[C@]32OO4` .
96.9

Consider the molecule shown here: `CC(=O)N1N=C(c2ccc(N)cc2)c2cc3c(cc2C[C@H]1C)OCO3` What is its recorded cell viability?
95.5

Any idea what cell viability was measured for O=C(NCC1CCCCN1)c1cc(OCC(F)(F)F)ccc1OCC(F)(F)F (stereo not given) [flecainide] ?
93.8

For the molecule O=[N+]([O-])O[C@@H]1CO[C@H]2[C@@H]1OC[C@@H]2O [isosorbide-mononitrate] , what cell viability is on record?
104

Which cell viability value belongs to `N#C/C(=C1/SC[C@@H](c2ccc(Cl)cc2Cl)S1)n1ccnc1` ?
102

Given `CC(=O)CC/C=C(\C)CC/C=C(\C)CC/C=C(\C)CCC=C(C)C` , state its recorded cell viability.
103

====

# System: Calu-3
# EXPERIMENT: drug sensitivity score (DSS) for viability; higher = more toxic; extreme values may be limits of the assay
# CONDITION_NOTES: 72 h
The entries below are paired with their reported drug sensitivity score.
API doc: respond with a numeric literal and nothing else, no unit.

Field: example entries. Status: answers known.
- C[C@]12CCC(=O)C=C1CC[C@@H]1[C@@H]2C(=O)C[C@]2(C)C(=O)CC[C@@H]12 [adrenosterone]: 0
- CCC(=O)O[C@]1(C(=O)CO)CC[C@H]2[C@@H]3CCC4=CC(=O)CC[C@]4(C)[C@H]3CC[C@@]21C [CB-03-01]: 0
- COc1cc(NC(=O)Nc2cccc(CNC(=O)O[C@H]3CCOC3)c2)ccc1-c1cnco1 [merimepodib]: 3.6
- CCn1c(=O)[nH]c2ccccc21 [1-EBIO]: 0.3

Please report the recorded drug sensitivity score for `Cc1cnc(-c2cc(N3CCN(C(=O)CCS(C)(=O)=O)CC3)ncc2Cl)c(C)c1` .
0

# lookup: drug sensitivity score of `Cn1c(=O)cnn(CCCCN2CCN(c3ncccn3)CC2)c1=O`
0

Consider the molecule shown here: Cc1ccc(CNc2ncnc3ccc(-c4ccc(CO)o4)cc23)o1 [ML167] What is its recorded drug sensitivity score?
1.2

Would you kindly share the measured drug sensitivity score for `CCc1ccc(/C=C2/SC(=S)NC2=O)cc1` ?
0

Look at this molecule and give its reported drug sensitivity score. N#Cc1cc(F)cc(-c2nc(-c3ccc(F)cn3)no2)c1 [AZD9272]
0

Data request, read-out drug sensitivity score, for `CSc1cc2c(cc1C(F)(F)F)N(C(=O)Nc1cccnc1)CC2`
0

Name the recorded drug sensitivity score for Cc1ccc(Nc2c(F)cccc2Cl)c(CC(=O)O)c1 [lumiracoxib] .
0

I'd like to know its drug sensitivity score. The molecule in question is COc1cc(Nc2ncc3c(n2)-c2ccc(Cl)cc2C(c2c(F)cccc2OC)=NC3)ccc1C(=O)O [alisertib]
1.6

Sample COc1cc(Nc2ncc(F)c(Nc3ccc4c(n3)NC(=O)C(C)(C)O4)n2)cc(OC)c1OC [R406] — what was its drug sensitivity score?
0.2

Reported drug sensitivity score for COc1cc([S+](C)[O-])ccc1-c1nc2cccnc2[nH]1 (stereo not drawn) [sulmazole] : what is it?
0

Would you mind telling me what drug sensitivity score value was observed for CC1(C)S[C@@H]2[C@H](NC(=O)[C@H](N)c3ccc(O)cc3)C(=O)N2[C@H]1C(=O)O [amoxicillin] ?
0
